target: UPR counterscreen luciferase reporter, luminescence; assay: luciferase reporter activation, UPR counterscreen line – cell-based, luminescence, counter-screen for adaptive UPR activator project, dose response (AID 489027)
Calls of active or inactive are those of the source. How the calls were made is not given here.
Labels: active, inactive

{"COMPOUND": "CCOC(=O)Cc1csc(/N=C/c2c(O)n(-c3ccc(C)c(C)c3)c(=O)c3ccccc23)n1", "SYSTEM_NAME": "UPR counterscreen luciferase reporter, luminescence", "DISCRETE_LABEL": "active"}
{"COMPOUND": "COc1ccc(/C=N/Nc2cc(C)nc3ccc(Br)cc23)cc1", "SYSTEM_NAME": "UPR counterscreen luciferase reporter, luminescence", "DISCRETE_LABEL": "active"}
{"COMPOUND": "COC(=O)c1sccc1NC(=O)c1cc(-c2cccc(C)c2)nc2ccccc12", "SYSTEM_NAME": "UPR counterscreen luciferase reporter, luminescence", "DISCRETE_LABEL": "inactive"}
{"COMPOUND": "COc1ccc2[nH]c3c(c2c1)CCN1C(=O)C(CC(=O)NC/C=C(\\C)CCC=C(C)C)C[C@H](C(=O)N2CCOCC2)[C@@]31CCC1CCCC1 (some centres undefined)", "SYSTEM_NAME": "UPR counterscreen luciferase reporter, luminescence", "DISCRETE_LABEL": "active"}
{"COMPOUND": "Cc1ccc(-c2cc(C(F)F)n3ncc(C(=O)N4CCc5ccccc54)c3n2)cc1", "SYSTEM_NAME": "UPR counterscreen luciferase reporter, luminescence", "DISCRETE_LABEL": "inactive"}
{"COMPOUND": "Cc1ccc(-n2nc3cc(C)c(NC(=S)NC(=O)/C=C/c4ccco4)cc3n2)cc1", "SYSTEM_NAME": "UPR counterscreen luciferase reporter, luminescence", "DISCRETE_LABEL": "active"}
{"COMPOUND": "Cc1ccc(N=Cc2c(O)n(-c3ccc4c(c3)OCO4)c(=O)c3ccccc23)cc1", "SYSTEM_NAME": "UPR counterscreen luciferase reporter, luminescence", "DISCRETE_LABEL": "inactive"}
{"COMPOUND": "Cn1nc(C(F)(F)F)c(/C=N/OC(=O)c2ccccc2)c1SCc1ccc(Cl)cc1", "SYSTEM_NAME": "UPR counterscreen luciferase reporter, luminescence", "DISCRETE_LABEL": "inactive"}
{"COMPOUND": "Clc1ccc(C2=Nn3c(nnc3-c3cc(-c4ccccc4)n[nH]3)SC2)cc1", "SYSTEM_NAME": "UPR counterscreen luciferase reporter, luminescence", "DISCRETE_LABEL": "active"}

###

target: UPR counterscreen luciferase reporter, luminescence; assay: luciferase reporter activation, UPR counterscreen line – cell-based, luminescence, counter-screen for adaptive UPR activator project, dose response (AID 489027)
Active and inactive are the calls of the source. How the calls were made is not given here.
Labels: active, inactive

{"MOLECULE": "CCOc1ccc(NC(=S)NC(=O)/C=C/c2ccc(OC)c(OC)c2)c([N+](=O)[O-])c1", "SYSTEM_NAME": "UPR counterscreen luciferase reporter, luminescence", "DISCRETE_LABEL": "inactive"}
{"MOLECULE": "Cc1ccc(C(=O)Cn2c(C(=O)/C=C/c3ccccc3)nc3ccccc32)cc1", "SYSTEM_NAME": "UPR counterscreen luciferase reporter, luminescence", "DISCRETE_LABEL": "active"}
{"MOLECULE": "CC1CCc2cc(F)ccc2N1C(=O)CSc1nnc2c(n1)[nH]c1ccc(F)cc12 (centres undefined)", "SYSTEM_NAME": "UPR counterscreen luciferase reporter, luminescence", "DISCRETE_LABEL": "inactive"}
{"MOLECULE": "CCOc1cc(/C=N/NC(=O)Cn2nc([N+](=O)[O-])cc2C)cc(Br)c1OCc1ccccc1C", "SYSTEM_NAME": "UPR counterscreen luciferase reporter, luminescence", "DISCRETE_LABEL": "inactive"}
{"MOLECULE": "COc1cc(CNCCO)cc(Cl)c1OCc1ccc(Cl)cc1Cl", "SYSTEM_NAME": "UPR counterscreen luciferase reporter, luminescence", "DISCRETE_LABEL": "inactive"}
{"MOLECULE": "O=C(/C=C1\\NC2(CCCC2)Cc2ccccc21)C(=O)N/N=C/c1ccc(O)c(O)c1", "SYSTEM_NAME": "UPR counterscreen luciferase reporter, luminescence", "DISCRETE_LABEL": "active"}
{"MOLECULE": "O=C(c1ccc2c(c1)[nH]c(=S)n1c3ccccc3nc21)N1CCN(c2cccc(Cl)c2)CC1", "SYSTEM_NAME": "UPR counterscreen luciferase reporter, luminescence", "DISCRETE_LABEL": "active"}
{"MOLECULE": "CN1C(=O)/C(=C/c2ccc(C(=O)NC3CCCC3)cc2)Oc2ccccc21", "SYSTEM_NAME": "UPR counterscreen luciferase reporter, luminescence", "DISCRETE_LABEL": "inactive"}
{"MOLECULE": "O=C(Nc1ccc(Oc2ccc(NC(=O)Nc3ccccc3Cl)cc2)cc1)Nc1ccccc1Cl", "SYSTEM_NAME": "UPR counterscreen luciferase reporter, luminescence", "DISCRETE_LABEL": "inactive"}
